measurement_description: gradient 5% acetonitrile 3 min, to 50% in 2 min, to 85% in 15 min, held 3 min, 100 µL/min
condition_set: column: Zorbax Extend-C18 2.1 x 50 mm; eluents: water / acetonitrile, 0.1% formic acid
For each record, check the reported RP-LC retention time: if it is below 700 s write true (1), else write false (0).

Input line: For Cc1cccc(CNC(=O)C2c3ccccc3CC(=O)N2C(C)C)c1 (stereo not given) , is the recorded RP-LC retention time below the cut-off of 700 s?
Output line: false (0)

Input line: Item CCc1cc(=O)n(CC(=O)Nc2ccc(Cl)cc2)c(-c2ccccc2)n1 : RP-LC retention time beneath 700 s, strictly?
Output line: false (0)

Input line: Is 700 s strictly greater than the molecule's reported RP-LC retention time? molecule: Cc1cc(C(=O)Nc2nc3ccc(S(=O)(=O)N(C)C)cc3s2)on1
Output line: false (0)

Input line: Does this molecule meet the criterion RP-LC retention time < 700 s? CCN1C(=O)C2CCCN2C(=O)c2ccccc21 (stereo not given)
Output line: true (1)

Input line: State whether 700 s exceeds RP-LC retention time recorded for CCN1CCN(CCNC(=O)C2CCCN(S(=O)(=O)c3ccc4c(ccn4CC)c3)C2)CC1 (stereo not given) .
Output line: true (1)

Input line: Please check: RP-LC retention time for Cc1sc2ccn(Cc3ccc(F)cc3)c(=O)c2c1C(=O)NCc1ccco1 , strictly under 700 s or not?
Output line: false (0)

Input line: RP-LC retention time under 700 s? Item: CSc1ccc(NS(=O)(=O)c2cc3c(s2)CCN(C(=O)C2CC2)C3)cc1
Output line: false (0)

Input line: Strictly below 700 s in RP-LC retention time? Cc1cc(N2CCN(C)CC2)n2nc(-c3ccc(C(C)(C)C)cc3)nc2n1
Output line: true (1)

Input line: Strictly below 700 s: is that where RP-LC retention time of O=C(OCc1ccc([N+](=O)[O-])cc1)c1ccc(S(=O)(=O)NCC2CCCO2)cc1 (stereo not given) sits?
Output line: false (0)

Input line: Strictly below 700 s in RP-LC retention time? O=C(Nc1ccc(N2CCCCC2=O)cc1)c1cccc2ccccc12
Output line: false (0)

Input line: Is 700 s strictly greater than the molecule's reported RP-LC retention time? molecule: C/C(O)=C(\C#N)C(=O)Nc1ccc(C(F)(F)F)cc1
Output line: false (0)

Input line: Consider the molecule O=C1CCc2cc(NC(=O)c3ccc(F)c(F)c3)ccc2N1 . Is its RP-LC retention time strictly less than 700 s?
Output line: true (1)

Input line: Please indicate whether the reported RP-LC retention time of c1cncc(CN2CCc3c(sc4ncnc(N5CCOCC5)c34)C2)c1 is strictly below 700 s.
Output line: true (1)

Input line: For this molecule, is RP-LC retention time lower than 700 s? Cc1cc(N2CCN(C(=O)c3ccc(Br)o3)CC2)nc(N2CCOCC2)n1
Output line: true (1)

Input line: In plain terms, does CCc1cccc(NC(=O)Cn2nc(N3CCCC(C)C3)c3ccccc3c2=O)c1 (stereo not given) come in under 700 s for RP-LC retention time?
Output line: false (0)

Input line: Is it true that RP-LC retention time reported for Cn1c(=O)c2c(-c3ccc(Cl)cc3)c(C#N)c(N)nc2n(C)c1=O is less than 700 s?
Output line: false (0)
